Field: protein stability index. Provide a value for each of the variants that follow.
B1: EHMT1 (parent)
chain: SARQGELQKVLLMLVDGIDPNFKM

Variants of: B1
protocolText: protein stability index of a GFP-peptide fusion (GPS, HEK-293T) (PSI 1-6); higher = more stable;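 further: lentivirally expressed fusions sorted by FACS into six bins by GFP to DsRed ratio, PSI derived from sequencing read proportions per bin multiplied by bin number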
recordedConditions: c terminus: a fixed tail appended
Keep the answer to the number alone.

Looking up SARQGELQKVLLMNVDGIDPNFKM [L14N] , I see its protein stability index listed as 3.02

Looking up SARQGELQKVLLMDVDGIDPNFKM [L14D] , I see its protein stability index listed as 3.47

Looking up SARQGELQKLLLMLVDGIDPNFKM [V10L] , I see its protein stability index listed as 1.25

Looking up SARQGELQKVLLHLVDGIDPNFKM [M13H] , I see its protein stability index listed as 1.88

Looking up SARQGELQKVLLMLVDGIDPNRKM [F22R] , I see its protein stability index listed as 1.52

Looking up SERQGELQKVLLMLVDGIDPNFKM [A2E] , I see its protein stability index listed as 1.86

Looking up SARQGELQKVLLMLVIGIDPNFKM [D16I] , I see its protein stability index listed as 1.69

Looking up SARMGELQKVLLMLVDGIDPNFKM [Q4M] , I see its protein stability index listed as 3.05

Looking up SARQGELQKVLLMLVDGIDKNFKM [P20K] , I see its protein stability index listed as 1.76

Looking up SAGQGELQKVLLMLVDGIDPNFKM [R3G] , I see its protein stability index listed as 1.86

Looking up SARQGFLQKVLLMLVDGIDPNFKM [E6F] , I see its protein stability index listed as 2.34

Looking up SNRQGELQKVLLMLVDGIDPNFKM [A2N] , I see its protein stability index listed as 3.47

Looking up SARQGELQKVLLMLVFGIDPNFKM [D16F] , I see its protein stability index listed as 1.6

Looking up SARQGELQKVLLMLVDGIDHNFKM [P20H] , I see its protein stability index listed as 1.75

Looking up SARQGELQKVLSMLVDGIDPNFKM [L12S] , I see its protein stability index listed as 2.18

Looking up SARQGELQKVLLMLVMGIDPNFKM [D16M] , I see its protein stability index listed as 2.7

Looking up SMRQGELQKVLLMLVDGIDPNFKM [A2M] , I see its protein stability index listed as 2.95

Looking up KARQGELQKVLLMLVDGIDPNFKM [S1K] , I see its protein stability index listed as 2.31

Looking up SARQGELQKVLVMLVDGIDPNFKM [L12V] , I see its protein stability index listed as 1.66

Looking up SARQGELQKVLLMLVDGEDPNFKM [I18E] , I see its protein stability index listed as 2.49

Looking up SARQGELQKVLLMLVDGPDPNFKM [I18P] , I see its protein stability index listed as 1.06

Looking up SARQQELQKVLLMLVDGIDPNFKM [G5Q] , I see its protein stability index listed as 1.93

Looking up SARQGELQKVLLMLDDGIDPNFKM [V15D] , I see its protein stability index listed as 2.69

Looking up SARQGELQKVELMLVDGIDPNFKM [L11E] , I see its protein stability index listed as 3.28

Looking up SARQGEAQKVLLMLVDGIDPNFKM [L7A] , I see its protein stability index listed as 1.91

Looking up SQRQGELQKVLLMLVDGIDPNFKM [A2Q] , I see its protein stability index listed as 1.78

Looking up SARSGELQKVLLMLVDGIDPNFKM [Q4S] , I see its protein stability index listed as 1.53

Looking up SARQGELQKVLLMVVDGIDPNFKM [L14V] , I see its protein stability index listed as 2.53

Looking up SARKGELQKVLLMLVDGIDPNFKM [Q4K] , I see its protein stability index listed as 1.35

Looking up SARQGELQKVLLMLVDEIDPNFKM [G17E] , I see its protein stability index listed as 2.08

Looking up SARQGELQKVLTMLVDGIDPNFKM [L12T] , I see its protein stability index listed as 1.28

Looking up SARGGELQKVLLMLVDGIDPNFKM [Q4G] , I see its protein stability index listed as 1.83

Looking up SARQGELQKKLLMLVDGIDPNFKM [V10K] , I see its protein stability index listed as 2.47

Looking up SARQGELQKVLLMLQDGIDPNFKM [V15Q] , I see its protein stability index listed as 2.17

Looking up SARQGELQKVYLMLVDGIDPNFKM [L11Y] , I see its protein stability index listed as 1.65

Looking up SARQGWLQKVLLMLVDGIDPNFKM [E6W] , I see its protein stability index listed as 1.89

Looking up SARQGELQKVLLLLVDGIDPNFKM [M13L] , I see its protein stability index listed as 2.11

Looking up SARQGELQKVLLMLVDGIDMNFKM [P20M] , I see its protein stability index listed as 2.91

Looking up SARQGELQKVLLMLVAGIDPNFKM [D16A] , I see its protein stability index listed as 2.11

Looking up SARQNELQKVLLMLVDGIDPNFKM [G5N] , I see its protein stability index listed as 2.26

Looking up SARQGELQKVLLMLKDGIDPNFKM [V15K] , I see its protein stability index listed as 2.25

Looking up SARQGELQKVLLELVDGIDPNFKM [M13E] , I see its protein stability index listed as 3.12

Looking up QARQGELQKVLLMLVDGIDPNFKM [S1Q] , I see its protein stability index listed as 2.03

Looking up SARQGELQKVLLMLVDGIDPNFKY [M24Y] , I see its protein stability index listed as 1.9

Looking up SARQGELQKVLLMLVDGIDPQFKM [N21Q] , I see its protein stability index listed as 1.41

Looking up SARQGELIKVLLMLVDGIDPNFKM [Q8I] , I see its protein stability index listed as 2.01

Looking up SARQGELQKVLLMLVDSIDPNFKM [G17S] , I see its protein stability index listed as 2.3

Looking up SARQGELQKVLLMLVDGISPNFKM [D19S] , I see its protein stability index listed as 2.5

Looking up SARQGELQKVLLMLVDGIDPNFEM [K23E] , I see its protein stability index listed as 1.21

Looking up SARQGELQKVLLMLVDGIDPNEKM [F22E] , I see its protein stability index listed as 2.69

Looking up SARCGELQKVLLMLVDGIDPNFKM [Q4C] , I see its protein stability index listed as 2.29

Looking up SAREGELQKVLLMLVDGIDPNFKM [Q4E] , I see its protein stability index listed as 1.94

Looking up SARQGELQKVLLMLVDGIKPNFKM [D19K] , I see its protein stability index listed as 1.81

Looking up SARQGERQKVLLMLVDGIDPNFKM [L7R] , I see its protein stability index listed as 2.12

Looking up SARQGELQKVLLMLNDGIDPNFKM [V15N] , I see its protein stability index listed as 2.56

Looking up SARQGELFKVLLMLVDGIDPNFKM [Q8F] , I see its protein stability index listed as 3.86

Looking up SARQGELQKVLLQLVDGIDPNFKM [M13Q] , I see its protein stability index listed as 2.09

Looking up NARQGELQKVLLMLVDGIDPNFKM [S1N] , I see its protein stability index listed as 2.67

Looking up SARQGELQKVLLMTVDGIDPNFKM [L14T] , I see its protein stability index listed as 1.7

Looking up SATQGELQKVLLMLVDGIDPNFKM [R3T] , I see its protein stability index listed as 1.76

Looking up SARQGELQKVLLMLVDGIDPDFKM [N21D] , I see its protein stability index listed as 1.41

Looking up SARQGELQKVLLMLVDGIDQNFKM [P20Q] , I see its protein stability index listed as 1.83

Looking up SRRQGELQKVLLMLVDGIDPNFKM [A2R] , I see its protein stability index listed as 1.28

Looking up SARQGELQKVLLMLVDGFDPNFKM [I18F] , I see its protein stability index listed as 1.81

Looking up SARQGELQKVNLMLVDGIDPNFKM [L11N] , I see its protein stability index listed as 3.23

Looking up SARQGELQKVLLALVDGIDPNFKM [M13A] , I see its protein stability index listed as 1.73

Looking up SARQGELQKVLLMQVDGIDPNFKM [L14Q] , I see its protein stability index listed as 2.54

Looking up LARQGELQKVLLMLVDGIDPNFKM [S1L] , I see its protein stability index listed as 1.03

Looking up SARQGELQKTLLMLVDGIDPNFKM [V10T] , I see its protein stability index listed as 1.99

Looking up EARQGELQKVLLMLVDGIDPNFKM [S1E] , I see its protein stability index listed as 1.66

Looking up SARQGEMQKVLLMLVDGIDPNFKM [L7M] , I see its protein stability index listed as 1.27

Looking up SACQGELQKVLLMLVDGIDPNFKM [R3C] , I see its protein stability index listed as 1.83

Looking up SVRQGELQKVLLMLVDGIDPNFKM [A2V] , I see its protein stability index listed as 1.75

Looking up SSRQGELQKVLLMLVDGIDPNFKM [A2S] , I see its protein stability index listed as 3.14

Looking up SARQGELQKVLLMLVDGIDPNFKD [M24D] , I see its protein stability index listed as 3.33

Looking up SARQGMLQKVLLMLVDGIDPNFKM [E6M] , I see its protein stability index listed as 2.91

Looking up SARQGELQKVLLMLYDGIDPNFKM [V15Y] , I see its protein stability index listed as 1.68

Looking up SARQGELQFVLLMLVDGIDPNFKM [K9F] , I see its protein stability index listed as 3.96

Looking up SARQGELQKVLAMLVDGIDPNFKM [L12A] , I see its protein stability index listed as 1.4
